Below, each entry is listed alongside its reported inhibition.
System: 3C-like protease (3CLpro), SARS coronavirus
assayExplanation: SARS 3CLpro protease inhibitors, late-stage follow-up, biochemical, fluorescence, single concentration, set 4 (AID 588772)
experimentalContext: recombinant 3CLpro, fluorogenic substrate cleavage; at 100 µM; active compounds read high

molecule	targetDesc	inhibition (%)
CC(C)(C)NC(=O)C(c1cccnc1)N(C(=O)c1ccco1)c1ccc(-c2ccnc(F)c2)cc1 (centres undefined)	3C-like protease (3CLpro), SARS coronavirus	40.3
CC(C)(C)NC(=O)C(c1ccn[nH]1)N(C(=O)c1ccco1)c1ccc(C(C)(C)C)cc1 (centres undefined)	3C-like protease (3CLpro), SARS coronavirus	6.3
CC(C)(C)NC(=O)C(c1cccnc1)N(C(=O)c1ccco1)c1ccc(-c2ccccc2)cc1 (centres undefined)	3C-like protease (3CLpro), SARS coronavirus	94.8
CC(C)(C)NC(=O)C(c1cn[nH]c1)N(C(=O)c1ccco1)c1ccc(C(C)(C)C)cc1 (centres undefined)	3C-like protease (3CLpro), SARS coronavirus	16.1
CC(C)(C)NC(=O)C(c1cnccn1)N(C(=O)c1ccco1)c1ccc(C(C)(C)C)cc1 (centres undefined)	3C-like protease (3CLpro), SARS coronavirus	96.2
Cn1cnc(C(=O)N(c2ccc(C(C)(C)C)cc2)C(C(=O)NC(C)(C)C)c2cccnc2)c1 (centres undefined)	3C-like protease (3CLpro), SARS coronavirus	51.3
CC(C)(C)NC(=O)C(c1cccnc1)N(C(=O)c1ccco1)c1ccc(-c2cccnc2)cc1 (centres undefined)	3C-like protease (3CLpro), SARS coronavirus	64.1
CC(C)(C)NC(=O)C(c1cccnc1)N(C(=O)c1ccco1)c1ccc(-c2cccc(F)c2F)cc1 (centres undefined)	3C-like protease (3CLpro), SARS coronavirus	90.2
CC(C)(C)NC(=O)C(c1cccnc1)N(C(=O)c1ccco1)c1ccc(I)cc1 (centres undefined)	3C-like protease (3CLpro), SARS coronavirus	66.3
CC(C)(C)NC(=O)[C@@H](c1cccnc1)N(C(=O)c1cnc[nH]1)c1ccc(C(C)(C)C)cc1	3C-like protease (3CLpro), SARS coronavirus	47.1
CC(C)(C)NC(=O)C(c1ccnnc1)N(C(=O)c1ccco1)c1ccc(C(C)(C)C)cc1 (centres undefined)	3C-like protease (3CLpro), SARS coronavirus	94.3
CC(C)(C)NC(=O)C(c1cnc[nH]1)N(C(=O)c1ccco1)c1ccc(C(C)(C)C)cc1 (centres undefined)	3C-like protease (3CLpro), SARS coronavirus	22.8
Cc1ccc(C(C(=O)NC(C)(C)C)N(C(=O)c2ccco2)c2ccc(C(C)(C)C)cc2)cn1 (centres undefined)	3C-like protease (3CLpro), SARS coronavirus	-4.1
Cc1noc(C)c1-c1ccc(N(C(=O)c2ccco2)C(C(=O)NC(C)(C)C)c2cccnc2)cc1 (centres undefined)	3C-like protease (3CLpro), SARS coronavirus	85.1
CC(C)(C)NC(=O)C(c1cccnc1)N(C(=O)c1ccco1)c1ccc(Oc2ccccc2)cc1 (centres undefined)	3C-like protease (3CLpro), SARS coronavirus	40.9
CC(C)(C)NC(=O)C(c1cccnc1)N(C(=O)c1ccco1)c1ccc(OCc2ccccc2)cc1 (centres undefined)	3C-like protease (3CLpro), SARS coronavirus	53.2
CC(C)(C)NC(=O)C(c1cccnc1)N(C(=O)c1ccco1)c1ccc(Cc2ccccc2)cc1 (centres undefined)	3C-like protease (3CLpro), SARS coronavirus	77.6
CC(C)(C)NC(=O)C(c1cccnc1)N(C(=O)c1ccc(C(F)(F)F)o1)c1ccc(C(C)(C)C)cc1 (centres undefined)	3C-like protease (3CLpro), SARS coronavirus	17.8
CC(C)(C)NC(=O)C(c1cccnc1)N(C(=O)c1ccco1)c1ccc(-c2cncnc2)cc1 (centres undefined)	3C-like protease (3CLpro), SARS coronavirus	48.6
